Data provenance is ChEMBL document CHEMBL3046897.

Tested on: Proteus vulgaris
Test Name: Antibacterial activity against Proteus vulgaris after 24 hr by agar streak dilution method
Type: functional
Each entry below carries its reported MIC.
Quantity: MIC (µg/mL)

Compound	Quantity	Value Observed
COc1ccc(C2SCC(=O)N2c2ccc(Nc3nc(Oc4ccc5c(C)cc(=O)oc5c4)nc(N(C)C)n3)cc2)cc1OC (stereo not drawn)	MIC	100
Cc1cc(=O)oc2cc(Oc3nc(Nc4ccc(N5C(=O)C(CN6CCN(c7ccccn7)CC6)SC5c5ccccc5Br)cc4)nc(N(C)C)n3)ccc12 (stereo not drawn)	MIC	50
Cc1cc(=O)oc2cc(Oc3nc(Nc4ccc(N5C(=O)C(CN6CCN(c7ccccn7)CC6)SC5c5ccc(F)cc5)cc4)nc(N(C)C)n3)ccc12 (stereo not drawn)	MIC	12.5
